Origin of values: patent US20020016346A1

The entries below are paired with their reported pIC50.
# System: Na+2Cl−K+ co-transporter (Oryctolagus cuniculus, UniProt P55015)
# Construct: cotransporter system found in the cortical thick ascending limbs of the loop of Henle of mammals; from tissue; host or cells: dissected, perfused cortical thick ascending limb tubules of rabbit kidney
# Sequence (P55015 whole entry, the tested form may be a part): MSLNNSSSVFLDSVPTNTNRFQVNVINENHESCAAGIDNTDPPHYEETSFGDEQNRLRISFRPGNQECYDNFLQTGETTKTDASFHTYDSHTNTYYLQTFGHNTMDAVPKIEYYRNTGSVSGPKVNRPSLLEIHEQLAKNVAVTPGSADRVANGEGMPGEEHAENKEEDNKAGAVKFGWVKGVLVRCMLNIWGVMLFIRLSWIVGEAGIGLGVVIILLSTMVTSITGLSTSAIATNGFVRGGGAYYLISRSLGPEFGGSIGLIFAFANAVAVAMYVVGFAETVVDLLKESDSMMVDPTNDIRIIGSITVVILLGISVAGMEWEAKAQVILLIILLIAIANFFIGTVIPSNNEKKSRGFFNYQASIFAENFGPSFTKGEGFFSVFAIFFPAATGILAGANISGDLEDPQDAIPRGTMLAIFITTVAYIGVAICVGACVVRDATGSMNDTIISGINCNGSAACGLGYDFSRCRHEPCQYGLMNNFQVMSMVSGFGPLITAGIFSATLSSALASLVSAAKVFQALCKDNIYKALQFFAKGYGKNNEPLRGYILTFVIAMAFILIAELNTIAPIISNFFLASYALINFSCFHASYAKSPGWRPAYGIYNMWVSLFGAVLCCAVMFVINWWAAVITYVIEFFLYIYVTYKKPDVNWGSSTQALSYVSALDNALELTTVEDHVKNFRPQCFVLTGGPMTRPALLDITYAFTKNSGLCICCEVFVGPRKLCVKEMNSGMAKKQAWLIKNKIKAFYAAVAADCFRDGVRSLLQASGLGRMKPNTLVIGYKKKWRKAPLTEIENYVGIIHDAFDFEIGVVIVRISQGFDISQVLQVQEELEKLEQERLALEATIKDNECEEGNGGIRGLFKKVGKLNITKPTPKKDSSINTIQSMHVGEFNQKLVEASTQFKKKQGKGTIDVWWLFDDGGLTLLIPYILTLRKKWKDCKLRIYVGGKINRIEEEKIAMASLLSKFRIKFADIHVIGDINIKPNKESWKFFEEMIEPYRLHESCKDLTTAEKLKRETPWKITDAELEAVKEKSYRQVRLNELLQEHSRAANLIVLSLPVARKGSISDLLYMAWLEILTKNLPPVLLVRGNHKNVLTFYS
# Test details: Inhibition of short circuit current in perfused cortical thick ascending limb of the loop of Henle
# Assay type: cell-based, rabbit
# Assay conditions: concentration blocking 50% of short circuit current; read-out: IC50
// field semantics: pIC50 = negative decimal log of concentration (mol/L)

Record excerpt, results attached:
Compound: CC(C)NC(=O)NS(=O)(=O)c1cnccc1NC1CCCCC1 [Compound 8]
pIC50: 6.15

Compound: O=S(=O)(NC(=S)NC1CCCCC1)c1cnccc1NC1CCCCCC1 [Compound 20]
pIC50: 6.10

We next turn to a different compound, shown below.
The reported pIC50 value, Na+2Cl−K+ co-transporter (Oryctolagus cuniculus, UniProt P55015), for O=C(NC1CCCCCCC1)NS(=O)(=O)c1cnccc1NC1CCCCC1 [Compound 15] reads 5.85
